System: PPARg:RXRa 270nM:90nM, anti-RXR (NR concentration 270 nM, RXRa partner concentration 90 nM)
Assay Notes: PBM binding z-score (relative to random genomic background probes); higher = stronger binding; sequences stand for … in GC…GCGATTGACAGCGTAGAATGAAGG
Response field class: enum, chosen by comparing PBM binding z-score against range A = under 0.5, range B = from 0.5 up to 5, range C = 5 and over

Here are 5 sequences together with their reported answers.
{"columns": ["Sequence Text", "Category Label"],
 "data": [
  ["ACTTACGGGTCAACGAGGTAATAGCACGCGTATA", "range C"],
  ["TCGAGTAGGTTAGTCGGCGCATTCAGCCAACATA", "range A"],
  ["CCAACTGGGGCATAAGGTTACCATAAGCCAGCCC", "range B"],
  ["ACTAGCAGGCCAAGTTTAGGTCACTCAAACAAAG", "range B"],
  ["CAAACTAGGTCAAGAGGTCAGAGTCCGCTTCCCG", "range C"]
]}

Input line: Into which category would you place TGAATGAGGTTAAAGACCAGGGAACGTGGCGTCG ?
Output line: range B

Input line: In plain terms, what class is GCATATAGGTAATACAAGGTGAAAGTGCGATTGT ?
Output line: range B

Input line: Lab note: sort TAGCCTACGTCATGGGCCAGTATACCACGCGAAC into the matching PBM binding z-score band.
Output line: range A

Input line: Band for the recorded PBM binding z-score of TATACAGGGTCAAAGGCCAGAGGACGAATGTCGA ?
Output line: range C

Input line: // bin(item) where item = AGAACAAGGGCAATGAGTTGATAGCACGGGTGGC
Output line: range A

Input line: In plain terms, what class is CTTAGCAGGCCAATCTGGGTCACTCAAGGCTTGA ?
Output line: range B

Input line: Exercise: read the entry CCTTACGGGTCAAGGTTATAGTACGGGTGGTACG and state which class it falls under.
Output line: range B

* * *

Tested on: THRa:RXRa (NR concentration 90 nM, RXRa partner concentration 90 nM)
Assay Notes: PBM binding z-score (relative to random genomic background probes); higher = stronger binding; sequences stand for … in GC…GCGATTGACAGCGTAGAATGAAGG
Property Name: PBM binding z-score
Respond with the number and no other words.

# count of solved cases: 5
{"columns": ["Sequence Text", "PBM binding z-score"],
 "data": [
  ["CCTACTGGGCCATTCAGATGTCATTGATCATATG", -0.291],
  ["ATTTCTAGGTAAAAGTTCAGTGAATCCCGAGGAT", 1.64],
  ["CGAACGAGGGCATGAGTTGAAAGCAAATGCCGAT", 1.37],
  ["CAAACTAGGTCAAAGGTGAAAGTCGAGCCAACCA", 3.65],
  ["ACAGACAGGTGATGAACGTAACTCAGGCTATCAT", 0.000937]
]}

PBM binding z-score for ACTCGCAGGACAAAGGTCAGAGCTACGCCAGTGA is 3.03

* * *

System: THRa homodimer (NR concentration 90 nM)
Assay Notes: PBM binding z-score (relative to random genomic background probes); higher = stronger binding; sequences stand for … in GC…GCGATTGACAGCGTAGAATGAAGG
Property Name: PBM binding z-score
// response body must contain only the number

{"columns": ["Sequence Text", "System", "Value Observed"],
 "data": [
  ["GCTTGTAGATCAAGGTTTAGAAAGACTAAGCTAA", "THRa homodimer (NR concentration 90 nM)", -0.736],
  ["TCTAGCAGGCCAGAAGGTCACTCAAGAGGTACGG", "THRa homodimer (NR concentration 90 nM)", 0.225],
  ["AGTCAAGGTTCACTAGGTAACGTAAGATTCAGCT", "THRa homodimer (NR concentration 90 nM)", 0.553],
  ["CGTCAAAGTTCAACTAAGATAACGTAAAGCACGC", "THRa homodimer (NR concentration 90 nM)", 0.329],
  ["ATTAGCAGGCCAAGGGTCACTCAAGATTAGTCCG", "THRa homodimer (NR concentration 90 nM)", 0.321],
  ["CAAACTAGGTCGCAGAGGTCAAAGTCCGTGCGTA", "THRa homodimer (NR concentration 90 nM)", 1.67]
]}

Please fill in: PBM binding z-score reported for ATATGTCGGTTAAGGGTCATTCAGGTTGGTTCGC = 1.7

For ACTAGCAGGCCAAGTTTGGGTCACTCATACAAAG the sequence record lists PBM binding z-score as 1.27

PBM binding z-score for TCGAGTAGGTTAGGGGCATTGAGAATGGCGTCGA is 0.383

Record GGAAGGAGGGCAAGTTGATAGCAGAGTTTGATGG . Reported PBM binding z-score: 1.12

The sequence listed as TCGAGTAGGTTAGGGGCATTCCGAATGGCGTCGA shows PBM binding z-score equal to -0.0824

Looking up CAACCAAGGTGAACAAGGTCGTTGATTACTATTC , I found its PBM binding z-score recorded as 2.06

Data origin, for the record: the supplement of paper PMC6555819
